Molecular target: T1, human TROP2-his protein (human, UniProt P09758 27-274)
T1 construct: Biotin-labelled in the ELISAs, unlabelled analyte in Biacore; also called biotin-labeled human TROP2-his protein; biotin human Trop2-his
T1 sequence: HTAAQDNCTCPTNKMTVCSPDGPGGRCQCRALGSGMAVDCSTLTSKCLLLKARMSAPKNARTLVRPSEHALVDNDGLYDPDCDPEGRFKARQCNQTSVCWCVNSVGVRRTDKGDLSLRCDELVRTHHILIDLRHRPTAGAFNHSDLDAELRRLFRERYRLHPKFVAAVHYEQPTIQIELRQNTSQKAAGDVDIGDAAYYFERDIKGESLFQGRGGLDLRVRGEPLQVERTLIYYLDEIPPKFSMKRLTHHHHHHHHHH
Experiment: SPR Biacore T200, supernatant antibody captured on anti-human IgG CM5 chip, 40 nM human TROP2-his
QUANTITY: koff
Answers without a unit are incomplete; give the number and then its unit.

Example entries begin here.
binder="huA1E4F7D4-V16 (antibody, human IgG1, kappa, V domains shown, Positions of the X residues are given in the claims; also called humanized antibody huA1E4F7D4-V16) VH: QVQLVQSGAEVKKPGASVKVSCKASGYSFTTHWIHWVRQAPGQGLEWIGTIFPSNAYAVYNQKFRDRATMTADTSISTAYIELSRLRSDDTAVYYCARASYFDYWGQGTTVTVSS VL: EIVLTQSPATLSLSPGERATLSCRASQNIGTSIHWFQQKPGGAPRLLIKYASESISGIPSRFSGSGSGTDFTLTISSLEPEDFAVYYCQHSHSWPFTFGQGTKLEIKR" quantity=koff result="0.000175 s⁻¹"
binder="huA1E4F7D4-V2 (antibody, human IgG1, kappa, V domains shown, Positions of the X residues are printed in CLM-00002, CLM-00003 and CLM-00005; Tested as cell supernatant) VH: QVQLVQSGAEVKKPGASVKVSCKASGYSFTTHWIHWVRQAPGQGLEWIGTIFPSNAYAVYNQKFRDRATMTADRSISTAYIELSRLRSDDTAVYYCARASYFDYWGQGTTVTVSS VL: EIVLTQSPATLSLSPGERATLSCRASQNIGTSIHWFQQKPGGSPRLLIKYASESISGIPSRFSGSGSGTDFTLTISSLEPEDFAVYYCQHSHSWPFTFGQGTKLEIKR" quantity=koff result="0.000188 s⁻¹"
binder="huA1E4F7D4-V4 (antibody, human IgG1, kappa, V domains shown, Positions of the X residues are given in the claims; Tested as cell supernatant) VH: QVQLVQSGAEVKKPGASVKVSCKASGYSFTTHWIHWVRQAPGQGLEWIGTIFPSNAYAVYNQKFRDRVTMTADRSISTAYIELSRLRSDDTAVYYCARASYFDYWGQGTTVTVSS VL: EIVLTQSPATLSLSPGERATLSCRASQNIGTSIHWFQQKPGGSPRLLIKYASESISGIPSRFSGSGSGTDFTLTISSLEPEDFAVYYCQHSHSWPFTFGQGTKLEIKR" quantity=koff result="0.00019 s⁻¹"

Consider the record given below.
INPUT: Which koff value belongs to huA1E4F7D4-V3 (antibody, human IgG1, kappa, V domains shown, Positions of the X residues are given in the claims; Tested as cell supernatant) VH: QVQLVQSGAEVKKPGASVKVSCKASGYTFTTHWIHWVRQAPGQGLEWIGTIFPSNAYAVYNQKFRDRATMTADRSISTAYIELSRLRSDDTAVYYCARASYFDYWGQGTTVTVSS VL: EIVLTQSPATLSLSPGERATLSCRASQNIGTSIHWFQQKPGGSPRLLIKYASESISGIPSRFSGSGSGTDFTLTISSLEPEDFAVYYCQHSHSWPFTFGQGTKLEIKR ?
OUTPUT: 0.000199 s⁻¹
